Target: p38α activated, mitogen-activated protein kinase-activated protein kinase 2 (MAPKAP-K2 or MK2) enzyme (Homo sapiens (Human), UniProt P49137)
Sequence (P49137 whole entry): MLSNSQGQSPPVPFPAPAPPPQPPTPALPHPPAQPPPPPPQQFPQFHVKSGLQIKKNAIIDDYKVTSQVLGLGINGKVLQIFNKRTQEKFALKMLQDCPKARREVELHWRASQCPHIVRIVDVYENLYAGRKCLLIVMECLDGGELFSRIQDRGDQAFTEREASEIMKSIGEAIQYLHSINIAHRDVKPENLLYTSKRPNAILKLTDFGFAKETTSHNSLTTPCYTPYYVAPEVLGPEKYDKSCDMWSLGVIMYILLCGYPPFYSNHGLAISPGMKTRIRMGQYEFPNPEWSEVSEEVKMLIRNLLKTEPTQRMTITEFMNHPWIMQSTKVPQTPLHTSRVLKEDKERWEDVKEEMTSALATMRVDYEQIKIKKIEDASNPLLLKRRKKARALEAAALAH
Experiment: MK2 Omnia continuous-read kinase assay for compound potency
Assay type: biochemical
Details: [MK-2]=0.4 nM, [ATP]=10 μM, [ST3-Sox]=10 μM; read-out: MK2 IC50
pIC50: −log10 of the molar value.
outcome measure: pIC50

Input line: Please give the measured pIC50 for this compound: NC(=O)c1cnc(Cl)nc1Nc1ccc2c(ccc3sc4c(c32)NC[C@@H](CO)NC4=O)n1
Output line: > 7.00

Input line: Using the record for C[C@@H]1CNc2c(sc3ccc4nc(Nc5nc(F)cc(OC6COC6)n5)ccc4c23)C(=O)N1 , report its pIC50.
Output line: > 7.00

Input line: Sample C[C@@H]1CNc2c(sc3ccc4nc(Nc5nc(Cl)nc(N6CCN(C)CC6)n5)ccc4c23)C(=O)N1 — what was its pIC50?
Output line: > 7.00

Input line: Please look up its pIC50: C[C@@H]1CNc2c(sc3ccc4nc(Oc5nc(Cl)ncc5CN5CCCC(C)(C)C5)ccc4c23)C(=O)N1
Output line: 6.30 to 7.00

Input line: Recorded pIC50 for C[C@@H]1CNc2c(sc3ccc4nc(Nc5cc(Cl)nc(O[C@@H]6CCN(C)C6)n5)ccc4c23)C(=O)N1 , please?
Output line: > 7.00

###

Molecular target: p38α activated, mitogen-activated protein kinase-activated protein kinase 2 (MAPKAP-K2 or MK2) enzyme (Homo sapiens (Human))
Assay: MK2 Omnia continuous-read kinase assay for compound potency
Format: biochemical
Settings: read-out: MK2 IC50
pIC50: −log10 of the molar value.
For each of the compounds below, state its pIC50.

Input line: GET /values?readout=pIC50&item= C[C@@H]1CNc2c(sc3ccc4nc(Oc5nc(Cl)nc6c5CN(C)CC6)ccc4c23)C(=O)N1 [I-126]
Output line: > 7.00

Input line: Report pIC50 for C[C@@H]1CNc2c(sc3ccc4nc(Nc5cc(Cl)ncc5C#N)ccc4c23)C(=O)N1 [I-25] please.
Output line: > 7.00

Input line: Entry under review: COC(=O)c1nc(Cl)cc(Nc2ccc3c(ccc4sc5c(c43)NC[C@@H](C)NC5=O)n2)n1 [I-70] . Reported pIC50?
Output line: > 7.00

###

For each of the molecules below, state its IC50.
Molecular target: p38α activated, mitogen-activated protein kinase-activated protein kinase 2 (MAPKAP-K2 or MK2) enzyme (Homo sapiens (Human))
Assay: MK2 Omnia continuous-read kinase assay for compound potency
Type: biochemical
Conditions: [MK-2]=0.4 nM, [ATP]=10 μM, [ST3-Sox]=10 μM; read-out: MK2 IC50

Input line: Param item = C[C@@H]1CNc2c(sc3ccc4nc(Oc5ccnc(Cl)n5)ccc4c23)C(=O)N1 ; retrieve measured IC50.
Output line: < 0.1 µM

Input line: What value of IC50 has been reported for the following molecule? NC[C@@H]1CNc2c(sc3ccc4nc(Nc5cc(F)ncn5)ccc4c23)C(=O)N1
Output line: < 0.1 µM

Input line: Sample C[C@@H]1CNc2c(sc3ccc4nc(Nc5nc(Cl)ncc5C(N)=O)ccc4c23)C(=O)N1 — what was its IC50?
Output line: < 0.1 µM

Input line: Need IC50, item C[C@@H]1CNc2c(sc3ccc4nc(Oc5cc(Cl)nc(CO)n5)ccc4c23)C(=O)N1
Output line: < 0.1 µM

Input line: // lookup IC50 for C[C@@H]1CNc2c(sc3ccc4nc(Oc5ncncc5CN(C)C(C)(C)C)ccc4c23)C(=O)N1
Output line: 0.501 to 0.999 µM

Input line: Tell me the measured IC50 of COCCOc1nc(F)cc(Nc2ccc3c(ccc4sc5c(c43)NC[C@@H](C)NC5=O)n2)n1 , please.
Output line: < 0.1 µM

Input line: // lookup IC50 for CO[C@@H]1CCCN(Cc2cnc(Cl)nc2Oc2ccc3c(ccc4sc5c(c43)NC[C@@H](C)NC5=O)n2)C1
Output line: 0.101 to 0.5 µM
